Target: SARS-CoV-2 M^pro (Severe acute respiratory syndrome coronavirus 2 (2019-nCoV) (SARS-CoV-2))
Assay: biochemical
Conditions: read-out: Activity (% enzyme activity by fluorescence relative to initial enzyme activity), compound at 17 μM, duplicates, 20 min pre-incubation
remaining activity at 17 µM for assorted compounds

The following compounds have reported results that may help.
compound	remaining activity at 17 µM
COc1ccc(-c2oc3c(CC=C(C)C)c(O)cc(O)c3c(=O)c2O[C@@H]2O[C@@H](C)[C@H](O)[C@@H](O)[C@H]2O[C@@H]2OC[C@@H](O)[C@H](O)[C@H]2O)cc1 [Sagittatoside B]	> 80%
COc1c(-c2ccc(O)c(O)c2)oc2c(CC=C(C)C)c(O)c(CC=C(C)C)c(O)c2c1=O	> 80%

Next, consider the following compound.
// remaining activity at 17 µM lookup, key: C=C(C)C(O)Cc1c(O)c(CC=C(C)C)c2occ(-c3ccc(O)c(O)c3)c(=O)c2c1O (stereo not drawn) > 80%

###

Target: SARS-CoV-2 M^pro (Severe acute respiratory syndrome coronavirus 2 (2019-nCoV) (SARS-CoV-2))
Experiment: biochemical
Settings: read-out: IC50 for inhibition of Mpro
pIC50: −log10 of the molar value.
measured.endpoint: pIC50

// pIC50 lookup, key: COc1cc(-c2oc3cc(OC(C)=O)c(OC)c(OC(C)=O)c3c(=O)c2OC)ccc1OC(C)=O [Jaceidin triacetate] 4.82 to 5.30

###

remaining activity at 17 µM for assorted compounds
Target: SARS-CoV-2 M^pro (Severe acute respiratory syndrome coronavirus 2 (2019-nCoV) (SARS-CoV-2), UniProt P0DTD1)
Assay: biochemical
Conditions: read-out: Activity (% enzyme activity by fluorescence relative to initial enzyme activity), compound at 17 μM, duplicates, 20 min pre-incubation

The following compounds have reported results that may help.
compound	result
CC(C)=CCc1cc([C@@H]2CC(=O)c3c(O)cc(O)c(CC=C(C)C)c3O2)cc(CC=C(C)C)c1O [5-Hydroxysophoranone]	> 80%
CC(C)=CCc1c(O)c(CC=C(C)C)c2occ(-c3ccc(O)cc3O)c(=O)c2c1O [8-Prenylluteone]	> 80%
C=C(C)[C@H](CC=C(C)C)Cc1c(O)cc(OC)c2c1O[C@H](c1ccc(O)cc1OC)CC2=O [2′-methoxykurarinone]	> 80%
CC(C)=CCc1c(O)c(CC=C(C)C)c2c(c1O)C(=O)C[C@@H](c1ccc(O)cc1)O2 [6,8-Diprenylnaringenin]	> 80%
C=C(C)[C@H](CC=C(C)C)Cc1c(O)cc(OC)c2c1O[C@H](c1ccc(O)cc1O)[C@@H](O)C2=O [Kushenol I]	> 80%
C=C(C)C(O)Cc1c(O)c(CC=C(C)C)c(O)c2c(=O)c(-c3ccc(O)c(O)c3)coc12 (stereo not shown) [millewanin H]	10 to 80%

// remaining activity at 17 µM lookup, key: COc1cc2oc(-c3ccc(O)cc3O)c(CC=C(C)C)c(=O)c2c(O)c1/C=C/C(C)C [Artocarpin] > 80%

// remaining activity at 17 µM lookup, key: CC(C)=CCc1c(O[C@@H]2O[C@H](CO)[C@@H](O)[C@H](O)[C@H]2O)cc(O)c2c(=O)c(O[C@@H]3O[C@@H](C)[C@H](O)[C@@H](O)[C@H]3O[C@@H]3O[C@@H](C)[C@H](O)[C@@H](O)[C@H]3O)c(-c3ccc(O)cc3)oc12 [Baohuoside V] 10 to 80%

// remaining activity at 17 µM lookup, key: C=C(C)[C@H](CC=C(C)C)Cc1c(O)cc(OC)c2c1O[C@H](c1ccc(O)cc1O)[C@H](O)C2=O [Kushenol N] > 80%

// remaining activity at 17 µM lookup, key: CC(C)=CCc1cc(-c2oc3cc(O)c(CC=C(C)C)c(O)c3c(=O)c2O)cc(O)c1O [broussonol E] > 80%

// remaining activity at 17 µM lookup, key: CC(C)=CCC/C(C)=C/Cc1cc(-c2cc(=O)c3c(O)cc(O)cc3o2)c(O)cc1O [5′-Geranyl-5,7,2′,4′-tetrahydroxyflavone] > 80%

// remaining activity at 17 µM lookup, key: CC(C)=CCc1c(O)cc(O)c2c(=O)c3c(oc12)-c1ccc(O)cc1OC3C=C(C)C (stereo not shown) [Cyclomulberrin] 10 to 80%

// remaining activity at 17 µM lookup, key: COc1cc(O)c2c(=O)c(O)c(-c3ccc(O)cc3)oc2c1CC=C(C)C [Isoanhydroicaritin] > 80%

// remaining activity at 17 µM lookup, key: COc1c(-c2ccc(O)cc2)oc2cc(O)c(CC=C(C)C)c(O)c2c1=O [Topazolin] > 80%

// remaining activity at 17 µM lookup, key: O=c1c(-c2ccc(O)cc2O)coc2cc(O)cc(O)c12 [2′-hydroxygenistein] > 80%

// remaining activity at 17 µM lookup, key: CC(C)=CCc1cc(-c2cc(=O)c3c(O)cc(O)c(CC=C(C)C)c3o2)ccc1O [8,3′-Diprenylapigenin] < 10%

// remaining activity at 17 µM lookup, key: CC(C)=CC1Oc2cc(O)ccc2-c2oc3c4c(cc(O)c3c(=O)c21)OC(C)(C)C=C4 (stereo not shown) [Cyclomorusin] > 80%

// remaining activity at 17 µM lookup, key: CC(C)=CCc1cc(-c2coc3cc(O)cc(O)c3c2=O)ccc1O [Isowighteone] > 80%

// remaining activity at 17 µM lookup, key: CC(C)=CCc1cc([C@@H]2CC(=O)c3ccc(O)c(CC=C(C)C)c3O2)cc(CC=C(C)C)c1O [(−)-Sophoranone] 10 to 80%
